- Tested on: Escherichia coli
- protocol summary: Protective dose (PD50) against Escherichia coli infected mice
- Assay type: functional
- run conditions: read-out: PD50
// NB: equality with 6 mg/kg counts as F; only ED50 strictly below is T

Field: example entries. Status: answers known.
N[C@@H](C(=O)N[C@@H]1C(=O)N2C(C(=O)O)=COC[C@H]12)c1ccc(O)cc1
F
C=CC1=C(C(=O)O)N2C(=O)[C@@H](NC(=O)[C@H](N)c3ccc(O)cc3)[C@H]2CO1
T
N[C@@H](C(=O)N[C@@H]1C(=O)N2C(C(=O)O)=C(C3CC3)OC[C@H]12)c1ccc(O)cc1
F

Q: # check: ED50 < 6 mg/kg for C/C=C/C1=C(C(=O)O)N2C(=O)[C@@H](NC(=O)[C@H](N)c3ccc(O)cc3)[C@H]2SC1.O (relative stereo; 56) [CEFPROZIL, (E)-]
A: T

Q: is_below(ED50, 6 mg/kg) for `CC1=C(C(=O)O)N2C(=O)[C@@H](NC(=O)[C@H](N)c3ccc(O)cc3)[C@H]2CO1` ?
A: F

Q: Say whether its ED50 is strictly beneath 6 mg/kg. Entry: N[C@@H](C(=O)N[C@@H]1C(=O)N2C(C(=O)O)=C(/C=C\C(F)(F)F)OC[C@H]12)c1ccc(O)cc1 (relative stereo)
A: F

Q: Below 6 mg/kg on ED50? Entry C/C=C\C1=C(C(=O)O)N2C(=O)[C@@H](NC(=O)[C@H](N)c3ccc(O)cc3)[C@H]2CO1 (relative stereo)
A: F

----------
- Test system: Streptococcus pneumoniae
- protocol summary: Minimum inhibitory concentration (MIC) against Streptococcus pneumoniae by 2-fold microdilution technique
- Format: functional
- run conditions: Streptococcus pneumoniae; read-out: MIC
property measured: MIC (µg/mL)
Give bare numbers, in µg/mL.

C=CCC1=C(C(=O)O)N2C(=O)[C@@H](NC(=O)[C@H](N)c3ccc(O)cc3)[C@H]2CO1
0.03

Please report MIC for every entry that follows.
1. N[C@@H](C(=O)N[C@@H]1C(=O)N2C(C(=O)O)=COC[C@H]12)c1ccc(O)cc1
2. C/C=C/C1=C(C(=O)O)N2C(=O)[C@@H](NC(=O)[C@H](N)c3ccc(O)cc3)[C@H]2CO1 (relative stereo)

A:
[1, 0.03]

----------
- System: Mus musculus
- protocol summary: Area under curve(AUC) was measured in mice after oral administration.
- Assay type: ADME, organism-based
- Design: concentration or dose not given beside the values; unit not given here
- run conditions: in vivo
property measured: AUC
Give bare numbers.

// known answers, use as guide
C=CCC1=C(C(=O)O)N2C(=O)[C@@H](NC(=O)[C@H](N)c3ccc(O)cc3)[C@H]2CO1
32
C=CC1=C(C(=O)O)N2C(=O)[C@@H](NC(=O)[C@H](N)c3ccc(O)cc3)[C@H]2SC1
21
C/C=C/C1=C(C(=O)O)N2C(=O)[C@@H](NC(=O)[C@H](N)c3ccc(O)cc3)[C@H]2CO1 (relative stereo)
30

Please give AUC for each item listed below.
1. C/C=C/C1=C(C(=O)O)N2C(=O)[C@@H](NC(=O)[C@H](N)c3ccc(O)cc3)[C@H]2SC1.O (relative stereo; 56) [CEFPROZIL, (E)-]
2. C/C=C\C1=C(C(=O)O)N2C(=O)[C@@H](NC(=O)[C@H](N)c3ccc(O)cc3)[C@H]2CO1 (relative stereo)
3. C=CCC1=C(C(=O)O)N2C(=O)[C@@H](NC(=O)[C@H](N)c3ccc(O)cc3)[C@H]2SC1
4. C/C=C/C1=C(C(=O)O)N2C(=O)[C@@H](NC(=O)[C@H](N)c3ccc(O)cc3)[C@H]2SC1.O (relative stereo; 57) [CEFPROZIL, (E)-]

A:
[42, 23, 41, 45]

----------
- Organism: Mus musculus
- protocol summary: Percentage of dose recovered after 0-6 hr in the urine of mice was measured.
- Format: ADME, organism-based
- run conditions: in vivo
property measured: Urinary recovery (% of dose, 0-6 h) (%)
Give bare numbers, in %.

Example results:
C=CCC1=C(C(=O)O)N2C(=O)[C@@H](NC(=O)[C@H](N)c3ccc(O)cc3)[C@H]2SC1
79
C/C=C/C1=C(C(=O)O)N2C(=O)[C@@H](NC(=O)[C@H](N)c3ccc(O)cc3)[C@H]2CO1 (relative stereo)
5
C=CC1=C(C(=O)O)N2C(=O)[C@@H](NC(=O)[C@H](N)c3ccc(O)cc3)[C@H]2CO1
73
C=CCC1=C(C(=O)O)N2C(=O)[C@@H](NC(=O)[C@H](N)c3ccc(O)cc3)[C@H]2CO1
46
C/C=C/C1=C(C(=O)O)N2C(=O)[C@@H](NC(=O)[C@H](N)c3ccc(O)cc3)[C@H]2SC1.O (relative stereo; 57) [CEFPROZIL, (E)-]
65
C/C=C\C1=C(C(=O)O)N2C(=O)[C@@H](NC(=O)[C@H](N)c3ccc(O)cc3)[C@H]2CO1 (relative stereo)
25

Please look at the following molecule next.
Q: Form field: reported Urinary recovery (% of dose, 0-6 h) of C/C=C/C1=C(C(=O)O)N2C(=O)[C@@H](NC(=O)[C@H](N)c3ccc(O)cc3)[C@H]2SC1.O (relative stereo; 56) [CEFPROZIL, (E)-]
A: 85

----------
- Tested on: Enterococcus faecalis
- protocol summary: Minimum inhibitory concentration (MIC) against Streptococcus faecalis by 2-fold microdilution technique.
- Assay type: functional
- run conditions: Enterococcus faecalis; read-out: MIC
property measured: MIC

Some entries whose results are on file:
C=CCC1=C(C(=O)O)N2C(=O)[C@@H](NC(=O)[C@H](N)c3ccc(O)cc3)[C@H]2CO1
1 mg/L
CCCC1=C(C(=O)O)N2C(=O)[C@@H](NC(=O)[C@H](N)c3ccc(O)cc3)[C@H]2CO1
0.03 mg/L
N[C@@H](C(=O)N[C@@H]1C(=O)N2C(C(=O)O)=C(Cl)CS[C@H]12)c1ccccc1.O
16 mg/L
N[C@@H](C(=O)N[C@@H]1C(=O)N2C(C(=O)O)=C(/C=C\C(F)(F)F)OC[C@H]12)c1ccc(O)cc1 (relative stereo)
0.06 mg/L
C/C=C/C1=C(C(=O)O)N2C(=O)[C@@H](NC(=O)[C@H](N)c3ccc(O)cc3)[C@H]2CO1 (relative stereo)
1 mg/L
N[C@@H](C(=O)N[C@@H]1C(=O)N2C(C(=O)O)=COC[C@H]12)c1ccc(O)cc1
32 mg/L
CC1=C(C(=O)O)N2C(=O)[C@@H](NC(=O)[C@H](N)c3ccccc3)[C@H]2SC1 [CEPHALEXIN ANHYDROUS]
32 mg/L

Q: Any idea what its MIC is? The compound is `C=CC1=C(C(=O)O)N2C(=O)[C@@H](NC(=O)[C@H](N)c3ccc(O)cc3)[C@H]2CO1`
A: 0.5 mg/L

----------
- Tested on: Staphylococcus aureus
- protocol summary: Minimum inhibitory concentration (MIC) against Staphylococcus aureus by 2-fold microdilution technique.
- Type: functional
- run conditions: Staphylococcus aureus; read-out: MIC
Can you tell me MIC for the items I'm about to list?
Give bare numbers, in µg/mL.

C=CCC1=C(C(=O)O)N2C(=O)[C@@H](NC(=O)[C@H](N)c3ccc(O)cc3)[C@H]2CO1
0.13
C/C=C/C1=C(C(=O)O)N2C(=O)[C@@H](NC(=O)[C@H](N)c3ccc(O)cc3)[C@H]2CO1 (relative stereo)
0.25

As a next step, examine the compound that follows.
Q: For the compound `N[C@@H](C(=O)N[C@@H]1C(=O)N2C(C(=O)O)=COC[C@H]12)c1ccc(O)cc1` , what MIC is on record?
A: 1

----------
- protocol summary: Cmax was measured in mice after an oral dose of 50 mg/kg.
- Format: ADME, organism-based
- Parameters: dose 50 mg/kg, route oral
- run conditions: mouse, in vivo
Mark t for reported Cmax of 30000 ng/mL or greater; mark f for anything smaller.

Study these solved cases before continuing.
C/C=C/C1=C(C(=O)O)N2C(=O)[C@@H](NC(=O)[C@H](N)c3ccc(O)cc3)[C@H]2CO1 (relative stereo)
f
C/C=C\C1=C(C(=O)O)N2C(=O)[C@@H](NC(=O)[C@H](N)c3ccc(O)cc3)[C@H]2CO1 (relative stereo)
f
C=CC1=C(C(=O)O)N2C(=O)[C@@H](NC(=O)[C@H](N)c3ccc(O)cc3)[C@H]2CO1
f
C=CCC1=C(C(=O)O)N2C(=O)[C@@H](NC(=O)[C@H](N)c3ccc(O)cc3)[C@H]2SC1
t
C=CCC1=C(C(=O)O)N2C(=O)[C@@H](NC(=O)[C@H](N)c3ccc(O)cc3)[C@H]2CO1
t
C/C=C/C1=C(C(=O)O)N2C(=O)[C@@H](NC(=O)[C@H](N)c3ccc(O)cc3)[C@H]2SC1.O (relative stereo; 56) [CEFPROZIL, (E)-]
t

Q: Reported Cmax reaches at least 30000 ng/mL for `C=CC1=C(C(=O)O)N2C(=O)[C@@H](NC(=O)[C@H](N)c3ccc(O)cc3)[C@H]2SC1` ?
A: f
